Numbers sourced from patent US20250034271A1.

target: T1, Histidine-tagged human CD40 protein (hCD40-His) (human, UniProt P25942 21-193); assay: SPR, Biacore T200; antibody on Protein A chip, hCD40-His injected; 1:1 fit
T1 construct: not shown: histidine tag
T1 sequence (P25942 21-193 limits assumed): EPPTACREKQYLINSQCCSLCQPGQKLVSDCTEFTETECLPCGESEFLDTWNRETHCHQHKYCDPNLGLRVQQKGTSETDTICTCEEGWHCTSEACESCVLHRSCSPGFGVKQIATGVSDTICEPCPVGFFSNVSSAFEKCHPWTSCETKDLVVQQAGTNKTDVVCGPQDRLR
Measurement Type: koff (s⁻¹)
Your answer should be a plain number; it is taken to be in s⁻¹.

7F10-H2K2-IgG4 (antibody, V domains shown, Humanized) VH: EVQLVESGGGLVQPGGSLRLSCATSGFTFSDYYMYWVRQAPGKRLEWVAYISYGGDSTFYPDTVRGRFTISRDNAKNSLYLQMSSLKAEDTAVYYCARPAPSAHSYYLDYWGQGTLLTVSS VL: DIQMTQSPSSLSASVGDRVTITCRASQDISNYLNWYQQKPGGAVKLLIYYTSRLHSGLPSRFSGSGSGTDYTFTISSLQPEDIATYYCQQGKTLPFTFASGTKLEIK    0.0534

Pending binder:
# binder 7F10-H3K1-IgG4 (antibody, V domains shown, Humanized) VH: EVKLVESGGGLVQPGGSLRLSCATSGFTFSDYYMYWVRQAPEKRLEWVAYISYGGDSTFYPDTVRGRFTISRDNAKNALYLQMSRLKAEDTAVYYCARPAPSAHSYYLDYWGQGTTLTVSS VL: DIQMTQSPSSLSASVGDRVTITCRASQDISNYLNWYQQKPGGAVKLLIYYTSRLHSGLPSRFSGSGSGTDFTFTISSLQPEDIATYYCQQGKTLPFTFASGTKLEIK ; its koff = 0.0568
